Test: folding enthalpy; higher = less favourable; fluorescence melt of hairpins on a sequencing array, two-state fit
Settings: sodium 0.088 M
The sequences listed here are annotated with their folding enthalpy.

- Primary sequence: "GACATGAAAATGTC (((((....)))))"
  folding enthalpy [kcal/mol]: -24
- Primary sequence: "GCTTCACGAAAGTGGAGC (((.(((....))).)))"
  folding enthalpy [kcal/mol]: -43.7
- Primary sequence: "GCTAACGAAAGTTTAAGC ((((((....)))..)))"
  folding enthalpy [kcal/mol]: -19
- Primary sequence: "GATCCCTTGGGGGATC ((((((....))))))"
  folding enthalpy [kcal/mol]: -46.9
